target: CST (CTC1-STN1-TEN1) (human, UniProt Q2NKJ3;Q9H668;Q86WV5 1-1217;1-368;1-123); test: fluorescence anisotropy; 200 mM KCl; FA: 200 mM NaCl, KCl or LiCl, 20 mM HEPES pH 7.4, 1 mM DTT, 22-25 C, 375 or 750 pM oligo, Kd,app +/- SEM; EMSA: 20 mM HEPES pH 7.4, 200 mM KCl, 1 nM 32P oligo; details: protein: recombinant; tags: 2xFLAG N-term on CTC1; 6xHis N-term on STN1 and TEN1; copies: 1;1;1; label: 5' fluorescein; parallel G4 in KCl; linear in LiCl
Sequence (Q2NKJ3 whole entry, chain 1 of 3): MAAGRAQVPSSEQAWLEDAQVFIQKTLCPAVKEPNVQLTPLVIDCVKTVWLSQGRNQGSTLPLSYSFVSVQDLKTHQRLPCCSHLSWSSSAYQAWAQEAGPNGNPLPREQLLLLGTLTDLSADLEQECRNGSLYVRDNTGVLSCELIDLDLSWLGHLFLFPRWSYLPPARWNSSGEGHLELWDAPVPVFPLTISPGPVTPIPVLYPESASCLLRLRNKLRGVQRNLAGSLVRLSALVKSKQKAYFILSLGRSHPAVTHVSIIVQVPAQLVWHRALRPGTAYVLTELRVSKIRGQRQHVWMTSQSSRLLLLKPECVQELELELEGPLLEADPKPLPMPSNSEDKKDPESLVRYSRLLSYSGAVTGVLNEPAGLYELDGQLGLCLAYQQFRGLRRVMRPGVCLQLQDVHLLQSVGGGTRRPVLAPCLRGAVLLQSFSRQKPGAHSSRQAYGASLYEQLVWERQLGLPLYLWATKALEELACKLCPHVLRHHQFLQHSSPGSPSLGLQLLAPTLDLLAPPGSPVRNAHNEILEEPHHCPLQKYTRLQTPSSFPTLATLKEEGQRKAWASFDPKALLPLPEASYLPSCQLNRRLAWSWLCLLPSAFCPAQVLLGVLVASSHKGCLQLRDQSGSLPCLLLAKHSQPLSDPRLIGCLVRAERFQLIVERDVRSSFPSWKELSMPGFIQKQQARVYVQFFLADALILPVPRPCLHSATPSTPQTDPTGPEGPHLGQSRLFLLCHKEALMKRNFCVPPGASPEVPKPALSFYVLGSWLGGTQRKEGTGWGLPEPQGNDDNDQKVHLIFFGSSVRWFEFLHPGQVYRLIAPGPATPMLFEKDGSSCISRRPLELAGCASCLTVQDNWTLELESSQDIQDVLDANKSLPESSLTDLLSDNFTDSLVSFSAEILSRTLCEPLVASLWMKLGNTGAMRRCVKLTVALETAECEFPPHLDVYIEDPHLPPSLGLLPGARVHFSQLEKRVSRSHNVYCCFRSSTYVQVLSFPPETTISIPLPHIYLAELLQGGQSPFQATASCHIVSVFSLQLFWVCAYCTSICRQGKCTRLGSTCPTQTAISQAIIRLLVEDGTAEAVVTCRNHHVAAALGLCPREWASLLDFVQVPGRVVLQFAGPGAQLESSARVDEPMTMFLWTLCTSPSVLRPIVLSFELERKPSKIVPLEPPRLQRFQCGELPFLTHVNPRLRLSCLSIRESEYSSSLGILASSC
Sequence (Q9H668 whole entry, chain 2 of 3): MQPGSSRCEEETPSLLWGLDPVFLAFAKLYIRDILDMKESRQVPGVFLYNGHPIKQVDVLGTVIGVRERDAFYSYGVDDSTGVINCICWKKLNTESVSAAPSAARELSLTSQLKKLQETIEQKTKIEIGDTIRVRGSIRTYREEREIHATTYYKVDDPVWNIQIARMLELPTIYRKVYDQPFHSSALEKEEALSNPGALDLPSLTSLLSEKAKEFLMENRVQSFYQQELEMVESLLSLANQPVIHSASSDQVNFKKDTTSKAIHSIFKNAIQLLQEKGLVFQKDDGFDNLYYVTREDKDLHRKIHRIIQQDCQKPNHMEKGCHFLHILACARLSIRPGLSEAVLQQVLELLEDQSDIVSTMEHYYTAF
Sequence (Q86WV5 whole entry, chain 3 of 3): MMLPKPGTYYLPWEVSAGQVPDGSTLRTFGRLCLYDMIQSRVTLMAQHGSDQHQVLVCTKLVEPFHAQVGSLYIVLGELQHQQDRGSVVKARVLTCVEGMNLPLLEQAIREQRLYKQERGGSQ

- binder: "TAGGGAGGGTAGGGAGGGT (structured_DNA) [2LBY]"
  Kd, nM: 26.5

Data provenance: paper PMC10250233
